Experiment: Selectivity index, ratio of CC50 for BHK21 cells to IC50 for Candida parapsilosis ATCC 22019
Format: toxicity
Details: hamster, read-out: Ratio CC50/IC50
Could you please report measured selectivity ratio for the items listed next?

So what does the record say about selectivity ratio for `O=C(/C=C/c1ccccc1)NNC(=O)c1ccccc1` ?
0.61

So what does the record say about selectivity ratio for `COc1cc(/C=C/C(=O)N2CCC=CC2=O)cc(OC)c1OC` ?
0.42

----------
Test: Growth inhibition of HUVEC at 5 uM relative to control
Assay type: cell-based
Settings: human, HUVEC cells; read-out: GI
reported_endpoint: inhibition at 5 µM

So what does the record say about inhibition at 5 µM for `COc1cc(/C=C/C(=O)Nc2ccc(NC(=O)[C@@H](O)[C@H](N)CCc3ccccc3)cc2)cc(OC)c1OC` ?
> 98%

So what does the record say about inhibition at 5 µM for `COc1cc(/C=C/C(=O)Nc2ccc(NC(=O)[C@@H](O)[C@H](N)Cc3ccccc3)cc2)cc(OC)c1OC` ?
93%

So what does the record say about inhibition at 5 µM for `COc1cc(/C=C/C(=O)Nc2ccc(NC(=O)[C@@H](O)[C@H](N)CC3CCCCC3)cc2)cc(OC)c1OC` ?
> 98%

----------
Could you please report measured CC50 at 48 h for the items listed next?
Assay: Cytotoxicity against BHK21 cells assessed as reduction in cell viability after 48 hrs by MTT assay
Assay type: cell-based, Mesocricetus auratus, BHK-21
Settings: hamster
For clarity, give the value followed by its unit.

So what does the record say about CC50 at 48 h for `O=C(/C=C/c1ccccc1)NNC(=O)c1ccccc1` ?
232 µM

So what does the record say about CC50 at 48 h for `COc1cc(/C=C/C(=O)N2CCC=CC2=O)cc(OC)c1OC` ?
40.1 µM

So what does the record say about CC50 at 48 h for `COc1cc(/C=C/C(=O)N2CCOCC2)cc(OC)c1OC` ?
186 µM

----------
Target: 5-hydroxytryptamine receptor 6 (Homo sapiens)
Sequence (P50406 whole entry): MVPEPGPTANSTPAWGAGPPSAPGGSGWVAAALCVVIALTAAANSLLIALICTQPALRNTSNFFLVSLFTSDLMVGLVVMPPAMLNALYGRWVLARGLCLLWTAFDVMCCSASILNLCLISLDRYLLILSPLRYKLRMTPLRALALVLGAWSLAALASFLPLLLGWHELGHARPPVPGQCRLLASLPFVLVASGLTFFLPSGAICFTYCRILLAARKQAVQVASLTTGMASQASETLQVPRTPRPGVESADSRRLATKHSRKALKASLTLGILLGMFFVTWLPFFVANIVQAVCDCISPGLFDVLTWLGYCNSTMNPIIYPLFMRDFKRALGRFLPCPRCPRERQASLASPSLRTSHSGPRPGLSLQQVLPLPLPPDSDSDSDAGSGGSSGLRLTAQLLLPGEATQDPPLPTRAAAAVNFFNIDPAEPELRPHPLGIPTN
Test: Displacement of [3H]LSD from human 5-HT6 receptor expressed in CHO-K1 cell membranes after 60 mins
reported_endpoint: IC50 (µM)
All answers are understood in µM, so give the number only.

Query the reported IC50 for 5-hydroxytryptamine receptor 6 (Homo sapiens); item: `CCCCCCCCCCNC(=O)/C=C/c1cc(OC)c(OC)c(OC)c1`
5

----------
Biological target: 5-hydroxytryptamine receptor 1A (Homo sapiens, UniProt P08908)
Sequence (P08908 whole entry): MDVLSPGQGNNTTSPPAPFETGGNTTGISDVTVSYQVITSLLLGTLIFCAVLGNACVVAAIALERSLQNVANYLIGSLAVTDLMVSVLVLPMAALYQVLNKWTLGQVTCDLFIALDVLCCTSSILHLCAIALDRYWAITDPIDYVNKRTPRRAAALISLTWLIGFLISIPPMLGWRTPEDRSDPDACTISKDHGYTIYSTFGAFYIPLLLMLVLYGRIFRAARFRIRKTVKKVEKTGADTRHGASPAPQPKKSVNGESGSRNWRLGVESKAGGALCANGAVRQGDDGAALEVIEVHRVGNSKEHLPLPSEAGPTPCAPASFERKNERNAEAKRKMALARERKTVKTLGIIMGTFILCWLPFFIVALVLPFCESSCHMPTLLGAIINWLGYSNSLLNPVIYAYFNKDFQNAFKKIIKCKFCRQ
Experiment: Displacement of [3H]8-OH-DPAT from 5-HT1A receptor (unknown origin) expressed in CHO-K1 cell membranes after 60 mins by microbeta counting method
reported_endpoint: pIC50
The scale used: pIC50 is minus the common logarithm of the concentration in molar units.

So what does the record say about pIC50 for `COc1cc(/C=C/C(=O)Oc2ccccc2)cc(OC)c1OC` ?
5.03

Numbers sourced from ChEMBL document CHEMBL4346712.
